pIC50: −log10 of the molar value.
Quick record: pIC50, human Gal-1 (hGal-1) (Homo sapiens).
attributeMeasured: pIC50

{"compound": "CN(CC1CCOCC1)C(=O)C(S[C@@H]1O[C@H](CO)[C@H](O)[C@H](n2cc(-c3cc(F)c(F)c(F)c3)nn2)[C@H]1O)C1(O)CCOCC1 (some centres unmarked)", "pIC50": 6.70}
{"compound": "CN(CC(C)(C)F)C(=O)[C@H](S[C@@H]1O[C@H](CO)[C@H](O)[C@H](n2cc(-c3cc(F)c(F)c(F)c3)nn2)[C@H]1O)C1(O)CCCCC1 [Example 2.39.222R.]", "pIC50": 4.42}
{"compound": "CO[C@@H]1[C@@H](n2cc(-c3cc(F)c(F)c(F)c3)nn2)[C@@H](O)[C@@H](CO)O[C@H]1S[C@@H](C(=O)N1CCC(F)(F)CC1)C1(O)CCC2(CCOCC2)CC1 [Example 2.72.226R.I.]", "pIC50": 4.40}
{"compound": "CCN(C)C(=O)[C@H](S[C@@H]1O[C@H](CO)[C@H](O)[C@H](n2cc(-c3cc(F)c(F)c(F)c3)nn2)[C@H]1O)C1(O)CCN(S(C)(=O)=O)CC1 [Example 2.47.203R.]", "pIC50": 4.47}
{"compound": "CN(CC1CC1)C(=O)C(S[C@@H]1O[C@H](CO)[C@H](O)[C@H](n2cc(-c3cc(F)c(F)c(F)c3)nn2)[C@H]1O)C1(O)CCC1 (some centres unmarked)", "pIC50": 6.66}

1: CN(CC1(F)CCCC1)C(=O)C(S[C@@H]1O[C@H](CO)[C@H](O)[C@H](n2cc(-c3cc(F)c(F)c(F)c3)nn2)[C@H]1O)C1(O)CCC(F)(F)CC1 (some centres unmarked) [Example 2.44.223R.]
2: CN(CC(C)(C)F)C(=O)[C@@H](S[C@@H]1O[C@H](CO)[C@H](O)[C@H](n2cc(-c3cc(F)c(F)c(F)c3)nn2)[C@H]1O)C1(O)CCC1 [Example 2.34.222S.]
Between these two entries, 1 and 2 , state which has the higher pIC50. Write down the label of the entry you select. 2

====

target: biotinylated human Gal-3 (hGal-3) (Homo sapiens, UniProt P17931); assay: Competitive binding assay: biotinylated hGal-3 binding to microplate-adsorbed asialofetuin (ASF), spectrophotometric; conditions: Table 11; hGal-3; read-out: IC50 (Gal-3 inhibition)
Sequence (P17931 whole entry): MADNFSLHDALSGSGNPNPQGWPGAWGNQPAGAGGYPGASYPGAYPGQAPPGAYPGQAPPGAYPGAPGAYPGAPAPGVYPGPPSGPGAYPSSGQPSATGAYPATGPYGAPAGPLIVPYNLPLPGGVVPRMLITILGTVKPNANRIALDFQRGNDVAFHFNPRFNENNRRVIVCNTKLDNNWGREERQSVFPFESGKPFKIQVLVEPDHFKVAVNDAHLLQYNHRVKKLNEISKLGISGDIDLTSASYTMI
pIC50: −log10 of the molar value.
attributeMeasured: pIC50

P: CCN(C)C(=O)C(S[C@@H]1O[C@H](CO)[C@H](O)[C@H](n2cc(-c3cc(F)c(Cl)c(F)c3)nn2)[C@H]1O)C1(O)CCOCC1 (stereo partly drawn)
Q: CCN(C)C(=O)C(S[C@@H]1O[C@H](CO)[C@H](O)[C@H](n2cc(-c3cc(F)c(F)c(Cl)c3)nn2)[C@H]1O)C1(O)CCOCC1 (stereo partly drawn)
R: CCN(C)C(=O)C(S[C@@H]1O[C@H](CO)[C@H](O)[C@H](n2cc(-c3nc(Br)cs3)nn2)[C@H]1O)C1(O)CCOCC1 (stereo partly drawn)
Rank the molecules listed above in increasing order of pIC50. Your task in answering is to list the labels in the requested order. R, Q, P

====

target: biotinylated human Gal-3 (hGal-3) (Homo sapiens, UniProt P17931); assay: Competitive binding assay: biotinylated hGal-3 binding to microplate-adsorbed asialofetuin (ASF), spectrophotometric; conditions: Table 12; hGal-3; read-out: IC50 (Gal-3 inhibition)
attributeMeasured: IC50 (nM)

{"compound": "CO[C@@H]1[C@@H](n2cc(-c3cc(F)c(F)c(F)c3)nn2)[C@@H](O)[C@@H](CO)O[C@H]1SC(C(=O)NCC(F)(F)F)C1(O)CCC(F)(F)CC1 (stereo partly drawn)", "resultValue": 130}

a: CO[C@@H]1[C@@H](n2cc(-c3cc(F)c(F)c(F)c3)nn2)[C@@H](O)[C@@H](CO)O[C@H]1SC(C(=O)N(C)C1COC1)C1(O)CCC(F)(F)CC1 (stereo partly drawn)
b: CCN(C)C(=O)C(S[C@@H]1O[C@H](CO)[C@H](O)[C@H](n2cc(-c3cc(F)c(F)c(F)c3)nn2)[C@H]1OC)C1(O)CCC(F)(F)CC1 (stereo partly drawn)
Which item exceeds the other in IC50, a or b ? Which one? Tell me its label. a
(a: 110 nM, b: 40 nM)

All figures here come from patent US12410208B2.
